Value source: the SangsterLogP compilation

assay: method code SF-HPLC, from DOI: 10.1080/10826079808000494; conditions: pH 6.9
OUTCOME MEASURE: logD
Numbers only.

// worked examples, logD included
- COMPOUND: "CCOC(=O)C1=C(C)NC(C)=C(C(=O)OC)C1c1ccc(OC)c(OC)c1 (stereo not given)"
  logD: 3.2
- COMPOUND: "CCOC(=O)C1=C(C)NC(C)=C(C(=O)OCC)C1c1cccc2c1OCO2"
  logD: 3.92
- COMPOUND: "CCOC(=O)C1=C(C)NC(C)=C(C(=O)OC)C1c1cccc2c1OCCO2 (stereo not given)"
  logD: 3.17

Provide logD for all items below, preserving their order.
1. CCOC(=O)C1=C(C)NC(C)=C(C(=O)OC)C1c1cc(OC)c(OC)c(OC)c1 (stereo not given)
2. COC(=O)C1=C(C)NC(C)=C(C(=O)OC)C1c1cccc2c1OCO2
3. COCCOC(=O)C1=C(C)NC(C)=C(C(=O)OC(C)C)C1c1cccc2c1OCO2 (stereo not given)
4. CCOC(=O)C1=C(C)NC(C)=C(C(=O)OC(C)C)C1c1cccc2c1OCO2 (stereo not given)
5. COC(=O)C1=C(C)NC(C)=C(C(=O)OCc2cccnc2)C1c1cccc2c1OCO2 (stereo not given)
6. COC(=O)C1=C(C)NC(C)=C(C(=O)OC(C)C)C1c1cccc2c1OCO2 (stereo not given)
7. CCOC(=O)C1=C(C)NC(C)=C(C(=O)OC)C1c1ccccc1 (stereo not given)

Completion:
2.99
3.06
3.54
4.31
3.21
3.75
3.74

Provide logD for all items below, preserving their order.
1. CCOC(=O)C1=C(C)NC(C)=C(C(=O)OC)C1c1cccc(OC)c1OC (stereo not given)
2. CCOC(=O)C1=C(C)NC(C)=C(C(=O)OC)C1c1cc(OC)c(O)c(OC)c1 (stereo not given)
3. CC1=C(C#N)C(C)(C)C(C#N)=C(C)N1

Completion:
[3.18, 2.43, 2.47]

Provide logD for all items below, preserving their order.
1. CCOC(=O)C1=C(C)NC(C)=C(C(=O)OC)C1c1cc(OC)cc(OC)c1 (stereo not given)
2. CCOC(=O)C1=C(C)NC(C)=C(C(=O)OC)C1c1ccccc1OCOC (stereo not given)

Completion:
1. 3.68
2. 3.38
